This collection of values is drawn from ChEMBL document CHEMBL1148809.

- runDescription: Partition coefficient, log P of the compound
- Type: physicochemical
- conditionNotes: octanol/water
quantityMeasured: logP

compoundSmiles	logP
CC(=O)O[C@H]1[C@@H]2[C@@H](OC(C)=O)[C@@]3(OC2(C)C)[C@](C)([C@H]1OC(=O)c1ccccc1)[C@@H](OC(=O)c1ccccc1)[C@@H](OC(=O)c1ccccc1)C[C@@]3(C)O	9.4
CC(=O)O[C@@H]1[C@H]2[C@@H](OC(=O)c3ccccc3)[C@@H](OC(=O)c3ccccc3)[C@]3(CO)[C@@H](OC(=O)c4ccccc4)[C@@H](OC(=O)c4ccccc4)C[C@@H](C)[C@@]13OC2(C)C	11.5
CCCCCCCCCCCC(=O)O[C@@H]1[C@H]2C[C@H](OC(=O)c3ccco3)[C@]3(C)[C@@H](OC(C)=O)[C@@H](OC(C)=O)C[C@@](C)(O)[C@@]13OC2(C)C	9.1
CC(=O)OC[C@]12[C@H](OC(=O)c3ccccc3)C(=O)[C@@H]3[C@@H](OC(C)=O)[C@]1(OC3(C)C)[C@](C)(O)C[C@H](OC(=O)c1ccccc1)[C@@H]2OC(=O)c1ccccc1	10
CC(=O)OC[C@@]12[C@@H](OC(=O)c3ccccc3)CC[C@@](C)(O)[C@]13OC(C)(C)[C@H]([C@@H](OC(=O)c1ccccc1)[C@H]2OC(=O)c1ccccc1)[C@H]3OC(C)=O	9.6
CC(=O)O[C@H]1[C@@H](OC(=O)c2ccccc2)C[C@@](C)(O)[C@]23OC(C)(C)[C@H](C[C@H](OC(=O)c4ccco4)[C@]12C)[C@H]3OC(=O)c1cccc2ccccc12	9.6
CC(=O)O[C@H]1C[C@@](C)(O)[C@]23OC(C)(C)[C@H]([C@H](OC(=O)c4ccccc4)[C@H](OC(=O)c4ccccc4)[C@]2(C)[C@H]1OC(=O)c1ccccc1)[C@H]3OC(C)=O	9.2
CC(=O)OC[C@]12[C@H](OC(=O)c3ccccc3)[C@H](OC(=O)c3ccccc3)[C@@H]3[C@@H](OC(C)=O)[C@]1(OC3(C)C)[C@H](C)C[C@H](OC(=O)c1ccccc1)[C@@H]2OC(C)=O	10.3
CCCCCCCCCCCC(=O)O[C@@H]1[C@H]2C[C@H](OC(=O)c3ccco3)[C@]3(C)[C@@H](OC(C)=O)[C@@H](OC(=O)c4ccccc4)C[C@@](C)(O)[C@@]13OC2(C)C	11.4
